# measured_on: T1, human-CD40-monomer protein (human, UniProt P25942 21-193, limits assumed)
# T1 construct: Soluble monomer generated in house, used as SPR analyte; also called hCD40; hCD40-monomer
# assay_comment: SPR, Ab captured on protein A, hCD40 monomer 500 and 50 nM, 1:1 fit; supernatant
For each entry below, report its koff value.
Give bare numbers, in s⁻¹.

Below, each entry is followed by its recorded koff result.
1) Y12XX-hz3 (antibody, human IgG1, kappa, V domains shown, Humanized, IgG1-P238K; supernatant sample) VH: QVQLVQSGAEVKKPGSSVKVSCKASGYAFTSYWMHWVRQRPGQGLEWIGFINPTTGYSEYNQKFKDRVTITADKSTSTAYMELNSLRSEDTAVYYCARWGLPPFAYWGQGTLVTVSS VL: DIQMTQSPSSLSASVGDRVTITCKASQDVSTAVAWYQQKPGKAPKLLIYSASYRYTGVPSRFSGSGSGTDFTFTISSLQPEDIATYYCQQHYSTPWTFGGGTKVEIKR :: 6.7e-05
2) Y12XX-hz12 (antibody, human IgG1, kappa, V domains shown, Humanized, IgG1-P238K; supernatant sample) VH: QVQLVQSGAEVKKPGSSVKVSCKASGYAFTSYWMHWVRQAPGQGLEWMGQINPSQGRSQYNEKFKTRVTITADKSTSTAYMELSSLRSEDTAVYYCARWGLQPFAYWGQGTLVTVSS VL: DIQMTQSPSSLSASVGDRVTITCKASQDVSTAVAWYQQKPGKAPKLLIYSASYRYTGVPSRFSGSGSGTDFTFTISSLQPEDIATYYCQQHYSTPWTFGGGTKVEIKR :: 0.0014

Below: the item to evaluate.
So for Y12XX-hz2 (antibody, human IgG1, kappa, V domains shown, Humanized, IgG1-P238K; supernatant sample) VH: QVQLVQSGAEVKKPGSSVKVSCKASGYAFTSYWMHWVRQRPGQGLEWMGFINPTTGYSEYNQKFKDRVTITADKSTSTAYMELSSLRSEDTAVYYCARWGLPPFAYWGQGTLVTVSS VL: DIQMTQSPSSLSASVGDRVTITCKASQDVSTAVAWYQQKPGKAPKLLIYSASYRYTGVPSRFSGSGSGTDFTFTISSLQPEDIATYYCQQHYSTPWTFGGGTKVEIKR , the logged koff turned out to be 7.1e-05
